- protocol: yeast display, Sf9 membrane polyspecificity reagent, FACS + sequencing; frameworks hold sequencing errors

>  <seq.string>
QVQLVESGGCLFQAGGSLRLSCAASGFIFGTYAIGWYRQAPGKERELVAAISVGRGSTYYADSVKGRFTISRDNAKNTVYLQMNSLKPEDTAVYYCAAVQLYQKHQITYVAHEYWGHGTQVTVSS

>  <polyreactivity (PSR sort gate)>
low polyreactivity

$$$$
>  <seq.string>
QVQHVESGGGLVQAGGSLRLICAASGSTFGYNAMGWYRHAPGKERELVARITSSGGATYYADSVKWRFTISRDNAKHTVYLLKNSLKPEDTAVYYCAAGYPYRAVYRYYYWGQGTQVTVSS

>  <polyreactivity (PSR sort gate)>
high polyreactivity

$$$$
>  <seq.string>
QVQLVESGGGLVQAGGSLRLSCAASGITFSRNVMGWYRQAPGKERELVAAISRSGGRTYYADSVKGRFTISRDTAKNTVYLQINSLKAEDTAVYYCNRDIGGTSVLDDYWGQGTQVTVSS

>  <polyreactivity (PSR sort gate)>
low polyreactivity

$$$$
>  <seq.string>
QVQLVESVGGLVQAGGSHRLSCAASGLTFEWYTMGWYRQAPGKERELVAVITVSGSSTYYADSVKGRFTISRDNAKNTVYLQMNSLKPEDTAVYYCNADWSFYSYTLYDYWGQGTQVTVSS

>  <polyreactivity (PSR sort gate)>
low polyreactivity

$$$$
>  <seq.string>
QVQLVESGGGLVQAGGSLRLSCAASGITFDQNAMGWSRQEPGKESEFVAAISVSGARTYYADSVKGRFTISRDNAKNTVYLQMNSLKPEDTAVYYCAAYGGTRYYYSYYYWGQGTQVTVSS

>  <polyreactivity (PSR sort gate)>
high polyreactivity

$$$$
>  <seq.string>
QVQLVESGGGLVQAGGSLRLICAASGSTIVYYAMAWYRQAPGKERELVAAISRVGSTNYADSVKGRFTISRDNAKNTVYLQMNSLKPEDTAVYYCNAERSRRYSGWVNYAPLNYWGQGTQVTVSS

>  <polyreactivity (PSR sort gate)>
low polyreactivity

$$$$
>  <seq.string>
QVQLVESGGGLVQAGGSLRLSCAASGFTFVNYAMGWYRQAPGKERELVAAISFRSARTYYADSVKGRFTISRDNAKNNVYLQMNSLKPEDTAVYYCAARVSRRFDYWGQGTQVTVSS

>  <polyreactivity (PSR sort gate)>
high polyreactivity

$$$$
>  <seq.string>
QVQLEESGGGLVQAGGSLRLSCAASGITFLTYAMGWYRQATVKERELVAGITSGGTTYYADSVKGRFTISRDNAMNTVYLQMNSLKPEDTAVYYCNADLQEYQSYDYWGQGTQVTVSS

>  <polyreactivity (PSR sort gate)>
low polyreactivity

$$$$
>  <seq.string>
QVQLVESGGGLVQAGGSLRLSCAASGSIFGGYPMGWYRQAPGKERELVAAITYSAGNTYYADSVKGRFTISRDNAKNTFYVQMNSLKPEDTAVYYCNAVTKHRAITNMDYWGQGTQVTVSS

>  <polyreactivity (PSR sort gate)>
high polyreactivity

$$$$
>  <seq.string>
QVQLVESGGGLVQAGGSLRLSCAASGRTFGRYAMGWYRQAPGKERELVATISSRGGNTYYADSVKGRFTISRDNAKNTVFLQMNSLKPEDTAVYYCAADVYSSDYDYWGQGTQVNVSS

>  <polyreactivity (PSR sort gate)>
high polyreactivity

$$$$
>  <seq.string>
QVQLVESGGGLVQAGGSLRLSCAASGRIFYRYAMGWYRQAPGKERELVAAITYSGGSTYYADSVKGRFTISRDNAKNTVYLQMNSLKPEDTAVYYCAAGGRGRPTTPPYGWYKLNYWGQGTQVTVSS

>  <polyreactivity (PSR sort gate)>
high polyreactivity

$$$$
